The origin of these recorded values is patent US20230233425A1.

Target: Olfr743 (Mus musculus, UniProt L7N1Y2)
Sequence (L7N1Y2 entry or part of it): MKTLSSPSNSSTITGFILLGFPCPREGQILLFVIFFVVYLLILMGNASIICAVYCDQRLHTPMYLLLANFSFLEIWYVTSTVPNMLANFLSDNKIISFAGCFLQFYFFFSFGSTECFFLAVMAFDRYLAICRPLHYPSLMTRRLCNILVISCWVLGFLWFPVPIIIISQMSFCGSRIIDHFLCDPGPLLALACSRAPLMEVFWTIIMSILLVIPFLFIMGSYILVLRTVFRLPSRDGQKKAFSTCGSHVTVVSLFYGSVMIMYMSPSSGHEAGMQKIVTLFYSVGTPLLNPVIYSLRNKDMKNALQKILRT
Assay: Indole antagonist dose-response, cAMP HTRF in HEK293T, vs indole EC80
Conditions: Table 23
pIC50: −log10 of the molar value.
Property: pIC50; scope: individual compounds
observedProperty: pIC50

[
  {
    "compound": "CC1(C)CCC[C@]2(C)CC(=O)CC[C@@H]12 (racemic)",
    "reportedMeasurement": 3.58
  },
  {
    "compound": "C=C1CC[C@H]2O[C@]2(C)CC[C@@H]2[C@@H]1CC2(C)C",
    "reportedMeasurement": 3.72
  },
  {
    "compound": "c1nc2c(o1)CCCCCCCCCC2",
    "reportedMeasurement": 4.23
  }
]
